target: Stat3 (Mus musculus); construct: Nuclear extract preparation from NIH3T3 stimulated by rhIL-6, NIH3T3/hEGFR stimulated by rhEGF; endogenous in cells; assay: In vitro Stat3 DNA-binding activity assay, EMSA with hSIE probe
Sequence (P42227 2-770 limits assumed): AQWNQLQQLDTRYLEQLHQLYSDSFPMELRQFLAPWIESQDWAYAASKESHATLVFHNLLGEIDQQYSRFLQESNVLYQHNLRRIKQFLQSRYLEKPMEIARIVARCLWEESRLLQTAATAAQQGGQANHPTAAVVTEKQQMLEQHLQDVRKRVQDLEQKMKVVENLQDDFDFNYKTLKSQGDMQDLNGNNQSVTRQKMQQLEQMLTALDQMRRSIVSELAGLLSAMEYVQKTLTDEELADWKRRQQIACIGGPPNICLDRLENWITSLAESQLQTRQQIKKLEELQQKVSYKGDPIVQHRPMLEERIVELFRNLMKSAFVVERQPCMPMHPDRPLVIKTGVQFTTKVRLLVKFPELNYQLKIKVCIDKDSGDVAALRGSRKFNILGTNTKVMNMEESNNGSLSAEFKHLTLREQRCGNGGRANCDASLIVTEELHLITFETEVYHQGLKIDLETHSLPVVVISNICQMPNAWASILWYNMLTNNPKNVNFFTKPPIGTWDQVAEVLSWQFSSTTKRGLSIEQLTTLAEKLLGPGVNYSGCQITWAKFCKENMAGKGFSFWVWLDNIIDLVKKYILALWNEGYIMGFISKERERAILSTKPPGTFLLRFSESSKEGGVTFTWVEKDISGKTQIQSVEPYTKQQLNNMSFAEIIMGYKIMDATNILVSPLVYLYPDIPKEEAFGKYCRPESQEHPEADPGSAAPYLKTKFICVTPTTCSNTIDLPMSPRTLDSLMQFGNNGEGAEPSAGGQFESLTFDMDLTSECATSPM
Property: pIC50
Conceptually, pIC50 converts a concentration in mol/L into minus its log10.

*Q* Endpoint output: pIC50 of CC(O)CN1CCN(CC(C)O)CC1 (stereo not shown) [PLATINUM-401] . Value?
*A* 5.85

====

molecular target: Stat1 (Mus musculus, UniProt P42225); construct: Nuclear extract preparation from NIH3T3 stimulated by rhIL-6, NIH3T3/hEGFR stimulated by rhEGF; endogenous in cells; assay: In vitro Stat1 DNA-binding activity assay, EMSA with hSIE or MGFe probe
Sequence (P42225 2-749 limits assumed): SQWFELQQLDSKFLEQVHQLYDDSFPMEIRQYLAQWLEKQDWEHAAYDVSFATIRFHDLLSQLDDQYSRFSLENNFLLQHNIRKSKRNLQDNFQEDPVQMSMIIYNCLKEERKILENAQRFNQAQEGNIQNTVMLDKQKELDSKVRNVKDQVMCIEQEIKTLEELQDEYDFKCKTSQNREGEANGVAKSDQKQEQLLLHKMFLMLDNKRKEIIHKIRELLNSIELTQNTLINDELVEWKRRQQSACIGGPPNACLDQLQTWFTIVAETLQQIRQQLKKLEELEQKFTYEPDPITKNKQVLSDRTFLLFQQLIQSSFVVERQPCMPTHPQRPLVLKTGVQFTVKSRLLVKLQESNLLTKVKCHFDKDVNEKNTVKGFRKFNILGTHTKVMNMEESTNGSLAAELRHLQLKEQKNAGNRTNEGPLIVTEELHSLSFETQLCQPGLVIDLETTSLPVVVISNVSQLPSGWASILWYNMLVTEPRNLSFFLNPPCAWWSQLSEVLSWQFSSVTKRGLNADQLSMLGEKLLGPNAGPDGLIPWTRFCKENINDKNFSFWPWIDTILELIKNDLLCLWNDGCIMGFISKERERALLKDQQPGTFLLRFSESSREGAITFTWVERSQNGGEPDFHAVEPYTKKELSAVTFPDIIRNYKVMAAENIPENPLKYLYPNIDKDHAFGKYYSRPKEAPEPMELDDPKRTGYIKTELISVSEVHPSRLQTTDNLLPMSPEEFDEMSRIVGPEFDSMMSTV
Property: IC50

*Q* Find IC50 (Stat1 (Mus musculus, UniProt P42225)) for the entry CC(O)CN1CCN(CC(C)O)CC1 (stereo not shown)
*A* 4.1 µM

The reported numbers originate from patent US11571418B2.
